- studySystem: GSK3b (GST-full length GSK3b) (Homo sapiens (Human), UniProt P49841)
- Sequence (P49841 whole entry): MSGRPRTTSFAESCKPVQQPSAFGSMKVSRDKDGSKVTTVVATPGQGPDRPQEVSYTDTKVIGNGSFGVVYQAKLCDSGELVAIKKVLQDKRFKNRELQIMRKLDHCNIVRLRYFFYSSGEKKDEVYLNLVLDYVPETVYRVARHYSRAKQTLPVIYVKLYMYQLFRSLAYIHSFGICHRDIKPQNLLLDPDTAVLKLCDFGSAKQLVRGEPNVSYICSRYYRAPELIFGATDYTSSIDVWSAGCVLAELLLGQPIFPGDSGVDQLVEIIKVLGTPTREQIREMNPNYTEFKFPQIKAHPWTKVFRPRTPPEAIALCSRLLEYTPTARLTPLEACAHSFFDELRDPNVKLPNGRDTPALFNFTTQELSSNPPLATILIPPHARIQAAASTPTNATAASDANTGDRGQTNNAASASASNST
- procedureSummary: GSK3b TR-FRET kinase assay
- Format: biochemical
- conditionNotes: 1 nM GSK3b, 2 μM ATP, 30 minute preincubation; read-out: GSK3-B TR-FRET BIOCHEMICAL (TR-FRET); IC50
readout: IC50

molecule="CCC1(c2cccc(N3CCOCC3)c2)C2=C(CC(C)(C)NC2=O)Nc2n[nH]cc21 (stereo not shown) [Compound 945602]" reported="> 5 µM"
molecule="CC1CCC(C(=O)N2CC3(C2)CC2(CO3)C3=C(CC(C)(C)CC3=O)Nc3n[nH]cc32)C1 (stereo not shown) [Compound 947268]" reported="≤ 0.1 µM"
molecule="Cc1[nH]nc2c1C1(CC3(CCC3)C1)C1=C(CC(C)(C)CC1=O)N2 [Compound 877295]" reported="> 5 µM"
molecule="CCC1(c2cccc(C(F)(F)F)c2)C2=C(CN(c3ccccc3)C2=O)Nc2n[nH]cc21 (stereo not shown) [Compound 945377]" reported="1 to 5 µM"
molecule="CC(=O)N1C[C@]2(C[C@@]3(CO2)C2=C(CC(C)(C)CC2=O)Nc2n[nH]cc23)[C@H]1C [Compound 948439]" reported="≤ 0.1 µM"
molecule="CC1(C)CC(=O)C2=C(C1)Nc1n[nH]cc1[C@]21COC2(CN(C(=O)C(F)(F)F)C2)C1 [Compound 948156]" reported="0.1 to 1 µM"

Kindly review the next molecule as well.
**Q:** Identify the reported IC50 for the following entry. C[C@H]1C[C@@H]2C[C@]3(C[C@@H]2C1)C1=C(CC(C)(C)CC1=O)Nc1n[nH]cc13 [Compound 943896]
**A:** ≤ 0.1 µM

Entry source: patent US20250313563A1
